Biological target: FGFR1 (UniProt P11362)
Sequence (P11362 whole entry, looked up): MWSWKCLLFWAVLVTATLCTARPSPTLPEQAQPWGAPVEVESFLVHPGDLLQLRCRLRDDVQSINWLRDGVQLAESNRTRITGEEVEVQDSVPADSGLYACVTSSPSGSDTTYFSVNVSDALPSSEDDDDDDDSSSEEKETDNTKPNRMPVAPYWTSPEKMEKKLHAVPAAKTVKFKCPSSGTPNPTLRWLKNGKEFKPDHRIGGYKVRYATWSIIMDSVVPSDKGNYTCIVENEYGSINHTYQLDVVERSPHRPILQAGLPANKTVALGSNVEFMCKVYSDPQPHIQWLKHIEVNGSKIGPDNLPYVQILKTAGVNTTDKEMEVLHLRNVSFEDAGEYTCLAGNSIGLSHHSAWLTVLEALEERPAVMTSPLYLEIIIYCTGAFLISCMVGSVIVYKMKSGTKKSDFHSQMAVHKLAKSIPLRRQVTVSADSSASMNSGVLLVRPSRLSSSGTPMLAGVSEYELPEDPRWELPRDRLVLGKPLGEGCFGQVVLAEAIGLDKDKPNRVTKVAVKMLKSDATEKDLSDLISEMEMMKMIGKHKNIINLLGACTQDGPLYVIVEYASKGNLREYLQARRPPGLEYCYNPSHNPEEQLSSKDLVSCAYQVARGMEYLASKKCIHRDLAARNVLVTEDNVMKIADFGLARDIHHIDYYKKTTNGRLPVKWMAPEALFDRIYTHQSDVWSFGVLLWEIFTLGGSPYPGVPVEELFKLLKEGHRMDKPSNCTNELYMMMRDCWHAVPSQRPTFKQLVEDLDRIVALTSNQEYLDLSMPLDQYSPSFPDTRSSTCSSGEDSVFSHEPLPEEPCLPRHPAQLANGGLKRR
Experiment: phosphorylation enrichment, bacterial display (enrichment ratio); higher = better substrate or ligand; peptides without Tyr show the background
Response key: True means phosphorylation enrichment >= 0.5; False means phosphorylation enrichment < 0.5.

Consider the following illustrative entries.
sequence-entry: GGQVFYNSEYG [FLT4_Y1333]
label-class: False
--
sequence-entry: SFLSYYTSHVQ [NEFL_Y443_P440L]
label-class: True
--
sequence-entry: NFATLYLKIFH [PDE6B_Y219_YF]
label-class: True
--
sequence-entry: YAANYYKLLGN [ROR2_Y646_D644N]
label-class: True
--
sequence-entry: GESVSYLFSHV [PRPS1_Y311]
label-class: False

Now consider the entry below.
Item KKMEVYQSIAD [MYBPC3_Y548_L545M] with phosphorylation enrichment of 0.5 or above?
True

====

Molecular target: c-Src SH2
Assay: SH2 binding enrichment of the phosphorylated peptide, bacterial display (enrichment ratio); higher = better substrate or ligand; peptides without Tyr show the background
quantity-name: SH2 binding enrichment
Respond numerically, and do not add a unit to the figure.

sequence-entry: HDRNTYEKYLE [TF_Y666_G671E]
measured-on: c-Src SH2
SH2 binding enrichment: 1.62

What value of SH2 binding enrichment has been reported for the following sequence? GPGSGYTNIMR [PKLR_Y564_R559G]
7.2

What value of SH2 binding enrichment has been reported for the following sequence? RSFSPCDFQPC [TNS1_Y796_Y796C_YF]
0.693

What value of SH2 binding enrichment has been reported for the following sequence? NNHGNYIVHLG [ETFDH_Y172_R175H]
0.587

What value of SH2 binding enrichment has been reported for the following sequence? WNGDKYAATTT [TRIM39_Y439]
0.481

What value of SH2 binding enrichment has been reported for the following sequence? QSAGQYSSQGL [TNNI3K_Y788]
0.369

What value of SH2 binding enrichment has been reported for the following sequence? LDPMVYMNDKS [PTK2B_Y834]
1.01

====

Molecular target: Hck (UniProt P08631)
Sequence (P08631 whole entry, looked up): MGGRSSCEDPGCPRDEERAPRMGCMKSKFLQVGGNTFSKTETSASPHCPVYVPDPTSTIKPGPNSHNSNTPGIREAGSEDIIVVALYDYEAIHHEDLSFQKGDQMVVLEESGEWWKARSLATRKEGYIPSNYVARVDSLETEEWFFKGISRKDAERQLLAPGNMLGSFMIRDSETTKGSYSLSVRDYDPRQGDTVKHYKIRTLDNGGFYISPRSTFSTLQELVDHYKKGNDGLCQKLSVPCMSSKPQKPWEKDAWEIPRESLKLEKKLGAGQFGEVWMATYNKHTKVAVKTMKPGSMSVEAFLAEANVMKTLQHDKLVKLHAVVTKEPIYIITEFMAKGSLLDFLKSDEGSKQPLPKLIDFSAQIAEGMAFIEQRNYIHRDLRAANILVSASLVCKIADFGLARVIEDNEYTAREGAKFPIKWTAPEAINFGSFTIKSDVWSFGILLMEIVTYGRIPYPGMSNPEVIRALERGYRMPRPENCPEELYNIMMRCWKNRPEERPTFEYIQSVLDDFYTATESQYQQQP
Experiment: phosphorylation enrichment, bacterial display (enrichment ratio); higher = better substrate or ligand; peptides without Tyr show the background
Response key: Met means phosphorylation enrichment >= 0.4; Not met means phosphorylation enrichment < 0.4.

Consider the following illustrative entries.
sequence-entry: GSTLSYFGLAT [P2RX7_Y343_A348T]
label-class: Met
--
sequence-entry: KIVYVYVKKRS [DNAI2_Y7_E2K]
label-class: Met
--
sequence-entry: DAANNYARGHY [TUBA3E_Y103_S101N]
label-class: Met
--
sequence-entry: KHGGNYVPAPK [OSCP1_Y237]
label-class: Met
--
sequence-entry: QDIMAYRSREV [BCL6_Y157_G159S]
label-class: Not met

Now consider the entry below.
Item PSDSGYSYETI [MAP1B_Y1921] with phosphorylation enrichment of 0.4 or above?
Met

====

Target: Jak2 (UniProt O60674)
Sequence (O60674 whole entry, looked up): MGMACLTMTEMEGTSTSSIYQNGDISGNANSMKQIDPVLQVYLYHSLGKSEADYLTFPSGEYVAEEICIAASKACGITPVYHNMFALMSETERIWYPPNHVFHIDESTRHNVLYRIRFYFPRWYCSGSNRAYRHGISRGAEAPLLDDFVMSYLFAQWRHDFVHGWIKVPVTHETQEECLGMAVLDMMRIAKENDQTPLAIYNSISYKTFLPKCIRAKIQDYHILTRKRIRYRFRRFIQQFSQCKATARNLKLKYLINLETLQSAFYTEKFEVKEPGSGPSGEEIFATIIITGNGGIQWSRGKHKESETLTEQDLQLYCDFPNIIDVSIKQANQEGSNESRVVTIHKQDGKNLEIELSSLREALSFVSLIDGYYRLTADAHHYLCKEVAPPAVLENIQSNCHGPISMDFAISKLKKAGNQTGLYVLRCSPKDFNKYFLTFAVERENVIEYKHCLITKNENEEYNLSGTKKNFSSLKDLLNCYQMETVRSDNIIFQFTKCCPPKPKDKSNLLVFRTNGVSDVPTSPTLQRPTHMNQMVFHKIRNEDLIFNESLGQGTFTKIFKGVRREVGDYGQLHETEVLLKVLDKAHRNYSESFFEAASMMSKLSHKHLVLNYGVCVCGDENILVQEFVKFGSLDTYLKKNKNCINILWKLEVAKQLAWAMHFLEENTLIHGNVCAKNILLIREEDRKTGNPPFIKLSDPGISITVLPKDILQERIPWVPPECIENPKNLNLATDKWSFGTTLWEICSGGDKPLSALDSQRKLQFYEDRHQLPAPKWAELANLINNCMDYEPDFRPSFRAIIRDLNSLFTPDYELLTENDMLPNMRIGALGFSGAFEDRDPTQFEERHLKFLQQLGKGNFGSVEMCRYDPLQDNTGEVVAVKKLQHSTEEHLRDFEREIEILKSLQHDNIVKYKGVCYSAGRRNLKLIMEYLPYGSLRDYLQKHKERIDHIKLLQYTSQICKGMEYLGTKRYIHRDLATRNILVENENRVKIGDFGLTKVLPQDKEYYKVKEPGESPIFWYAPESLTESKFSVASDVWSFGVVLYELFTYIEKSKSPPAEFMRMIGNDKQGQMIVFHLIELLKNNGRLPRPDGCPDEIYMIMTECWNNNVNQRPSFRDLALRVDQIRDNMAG
Experiment: phosphorylation enrichment, bacterial display (enrichment ratio); higher = better substrate or ligand; peptides without Tyr show the background
phosphorylation enrichment by entry:
Respond numerically, and do not add a unit to the figure.

In the examples that follow, each entry is paired with its recorded phosphorylation enrichment.
sequence-entry: DSLASYLDKVR [KRT10_Y160_R156S]
phosphorylation enrichment: 0.682

sequence-entry: SKLTIYDGRPS [MTM1_Y277_A279G]
phosphorylation enrichment: 0.589

sequence-entry: DGLASYLDKVR [KRT12_Y139_R135G]
phosphorylation enrichment: 0.631

sequence-entry: LQTYRYHGLSM [PDHA1_Y289_H292L]
phosphorylation enrichment: 0.576

sequence-entry: IVGLLYRLLTE [SETX_Y1978]
phosphorylation enrichment: 1.13

What value of phosphorylation enrichment has been reported for the following sequence? NHQYDYTFHWT [CSNK1A1_Y294_D297H]
0.892

What value of phosphorylation enrichment has been reported for the following sequence? EHFSYYGMKAV [SLC15A2_Y61_R57H]
9.46

What value of phosphorylation enrichment has been reported for the following sequence? QMEKICTQQIQ [CCNB1IP1_Y125_Y125C]
1.24

What value of phosphorylation enrichment has been reported for the following sequence? TVLEPYADPYY [ZC3H18_Y367]
1.58

What value of phosphorylation enrichment has been reported for the following sequence? PSPTRYSLSPS [RANBP2_Y785]
0.439

What value of phosphorylation enrichment has been reported for the following sequence? YYHCTYKKRMI [CLEC12A_Y242]
1.29

What value of phosphorylation enrichment has been reported for the following sequence? SAEEDYMADAK [KCNT1_Y876]
1.25

What value of phosphorylation enrichment has been reported for the following sequence? HESEIYCKVCF [CSRP3_Y57_YF]
1.21

====

SH2 binding enrichment by entry:
Target: Grb2 SH2 (UniProt P62993)
Sequence (P62993 whole entry, looked up): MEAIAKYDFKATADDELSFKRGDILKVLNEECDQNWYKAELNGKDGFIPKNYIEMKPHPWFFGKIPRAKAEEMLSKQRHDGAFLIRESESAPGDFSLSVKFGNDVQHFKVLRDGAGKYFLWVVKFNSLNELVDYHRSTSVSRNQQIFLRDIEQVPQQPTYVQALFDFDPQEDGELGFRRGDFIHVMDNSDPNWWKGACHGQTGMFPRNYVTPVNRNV
Test: SH2 binding enrichment of the phosphorylated peptide, bacterial display (enrichment ratio); higher = better substrate or ligand; peptides without Tyr show the background
Respond numerically, and do not add a unit to the figure.

sequence-entry: LINSVYGCSRQ [TMPRSS6_Y290_T287N]
SH2 binding enrichment: 0.727

sequence-entry: KKFFSYAWPFF [BRDT_Y291_H288Y_YF]
SH2 binding enrichment: 1.34

What value of SH2 binding enrichment has been reported for the following sequence? IVKAFYVRARA [AIPL1_Y268_YF]
0.872

What value of SH2 binding enrichment has been reported for the following sequence? NLTLKYPIEHG [ACTA1_Y71_I66N]
0.804

What value of SH2 binding enrichment has been reported for the following sequence? FSIAQYCCRMG [LRRK2_Y2023_G2019S_YF]
1.17

What value of SH2 binding enrichment has been reported for the following sequence? PYTDPYYDYEI [ZC3H18_Y371_A368T]
1.13

What value of SH2 binding enrichment has been reported for the following sequence? RLLRGYDQYAY [HLA-B_Y137_H137Y]
1.26

What value of SH2 binding enrichment has been reported for the following sequence? LVPPRYVRSEI [PKP2_Y194_A195V]
0.788

What value of SH2 binding enrichment has been reported for the following sequence? LARDMCDKEFF [MET_Y1230_Y1230C_YF]
0.778

What value of SH2 binding enrichment has been reported for the following sequence? HIILLYIFLKN [STXBP1_Y411_R406H]
1.86

What value of SH2 binding enrichment has been reported for the following sequence? REGDKYVSHGA [ASS1_Y113_A111D]
0.623

What value of SH2 binding enrichment has been reported for the following sequence? KQINDYVEKGT [SERPINA1_Y184]
0.726

====

Target: FGFR1 (UniProt P11362)
Assay: phosphorylation enrichment, bacterial display (enrichment ratio); higher = better substrate or ligand; peptides without Tyr show the background
Okay, here is how we bin by phosphorylation enrichment: bin 0: < 0.5; bin 1: ≥ 0.5 and < 0.7; bin 2: ≥ 0.7

Consider the following illustrative entries.
sequence-entry: DLVSEYQQYQD [TUBB3_Y422]
label-class: bin 1

sequence-entry: GGTTLYPGIAD [ACTC1_Y308_M307L]
label-class: bin 1

sequence-entry: YSNVLYRPRGA [TMIGD2_Y197]
label-class: bin 2

sequence-entry: LLNAIYLSAKR [SERPING1_Y294_W299R]
label-class: bin 1

sequence-entry: LEAVSYSSRFA [RNLS_Y190_YF]
label-class: bin 0

sequence-entry: HNGVSYFINLC [IGF2R_Y2024_YF]
label-class: bin 2

sequence-entry: VEQIHYIGQNE [HMOX2_Y140_R137Q]
label-class: bin 0

sequence-entry: LHRHAYPEQQQ [DPPA2_Y127_R131Q]
label-class: bin 2

sequence-entry: LQTYRYHGLSM [PDHA1_Y289_H292L]
label-class: bin 2

sequence-entry: RDLTHYLMKIL [ACTG1_Y188_D187H]
label-class: bin 1

Which phosphorylation enrichment band matches `ENAGFYFRVSA` ?
bin 2

Which phosphorylation enrichment band matches FLEEEYVKAVG [TF_Y674_G671E_YF] ?
bin 1

====

System: Fer (mouse)
Experiment: phosphorylation enrichment, bacterial display (enrichment ratio); higher = better substrate or ligand; peptides without Tyr show the background
quantity-name: phosphorylation enrichment
Respond numerically, and do not add a unit to the figure.

sequence-entry: SIKGKYVTALF [KCNH2_Y611_D609G_YF]
measured-on: Fer (mouse)
quantity-name: phosphorylation enrichment
data-value: 0.525

sequence-entry: PLDGEYFTLQI [TP53_Y327]
measured-on: Fer (mouse)
quantity-name: phosphorylation enrichment
data-value: 1.19

sequence-entry: LKGIRYLTSGL [PIGA_Y82_R77L]
measured-on: Fer (mouse)
quantity-name: phosphorylation enrichment
data-value: 1.01

Now for a further sequence.
What value of phosphorylation enrichment has been reported for the following sequence? STDDGYIDLQF [TMEM230_Y29]
0.584

====

Target: SHP2-C SH2
Assay: SH2 binding enrichment of the phosphorylated peptide, bacterial display (enrichment ratio); higher = better substrate or ligand; peptides without Tyr show the background
SH2 binding enrichment by entry:
Respond numerically, and do not add a unit to the figure.

sequence-entry: CTTNHYNFMCN [TP53_Y234_I232N_YF]
measured-on: SHP2-C SH2
SH2 binding enrichment: 1.12
//
sequence-entry: HNLDFYKQTTN [FGFR3_Y648_K650Q_YF]
measured-on: SHP2-C SH2
SH2 binding enrichment: 0.488
//
sequence-entry: KLNNEYLELNF [MME_Y497_YF]
measured-on: SHP2-C SH2
SH2 binding enrichment: 0.751

Param readout= SH2 binding enrichment; system= SHP2-C SH2; entry= NSRFTYKLEVK [USH2A_Y3747_YF] ; returns value.
0.561

Param readout= SH2 binding enrichment; system= SHP2-C SH2; entry= HHTNEYEFDEL [TGM1_Y134_D132N_YF] ; returns value.
0.783
